system: Vero; assay: Cytotoxicity against African green monkey Vero cells assessed as reduction in cell viability by MTT assay; assay type: cell-based; details: Chlorocebus sabaeus
value-type: IC50 (µM)

> print(dat)
                                        smi  assay.target  value.type  endpoint.result
1    Cc1cc(C)n(-c2nc(-c3ccccc3)cc(=O)n2C)n1          Vero        IC50              357
2  Cc1cc(N)n(-c2nc(-c3ccccc3)cc(=O)[nH]2)n1          Vero        IC50                9
3     Cc1ccc(Nc2cc(C)nn2-c2nc(C)cc(O)n2)cc1          Vero        IC50              1.2
4                Cc1cc(O)nc(-n2nc(C)cc2C)n1          Vero        IC50              325
5  CC(=O)Nc1cc(C)nn1-c1nc(-c2ccccc2)cc(=O)[nH]1          Vero        IC50               35

* * *

assay: Cmax in C57/BL6 mouse blood at 2 mg/kg, iv administered as bolus dose measured upto 24 hrs by LC-MS/MS analysis; assay type: ADME, organism-based; design: route intravenous, dose 2 mg/kg, time <=24; conditions: mouse, in vivo, 24 h
value-type: Cmax (µM)

> print(dat)
                                       smi  value.type  endpoint.result
1  Cc1cc(C)n(-c2nc(C(F)(F)F)cc(=O)[nH]2)n1        Cmax             29.1

* * *

Recorded below: pIC50, system Voltage-gated inwardly rectifying potassium channel KCNH2 (Homo sapiens, UniProt Q12809).
pIC50: −log10 of the molar value.
value-type: pIC50

> print(dat)
                                       smi  endpoint.result
1     Cc1cc(C)n(-c2nc(O)cc(-c3ccccc3)n2)n1           < 4.52
2  Cc1cc(C)n(-c2nc(C(F)(F)F)cc(=O)[nH]2)n1           < 4.52

* * *

assay: Metabolic stability in mouse liver microsomes assessed as parent compound remaining after 30 mins; assay type: ADME, Microsome; conditions: 0.5 h
value-type: Stabilty (%)

> print(dat)
                                        smi  reading.qualifier  endpoint.result
1  Cc1cc(Nc2ccccn2)n(-c2nc(C(F)(F)F)cc(=O)[nH]2)n1                  >               99
2  Cc1cc(Nc2ccc(F)cc2)n(-c2nc(C(F)(F)F)cc(=O)[nH]2)n1                  =               96
3  Cc1cc(C)n(-c2nc(-c3ccccc3)c(C)c(=O)[nH]2)n1                  =               45
4   Cc1cc(C)n(-c2nc(C(F)(F)F)cc(=O)[nH]2)n1                  >               99
5  CCNc1cc(C)nn1-c1nc(-c2cccnc2)cc(=O)[nH]1                  =               94
6  Cc1cc(NC2CCOCC2)n(-c2nc(C(F)(F)F)cc(=O)[nH]2)n1                  =               93

* * *

test: Apparent half life in C57/BL6 mouse blood at 20 mg/kg, po measured upto 24 hrs by LC-MS/MS analysis; assay type: ADME, organism-based; conditions: C57/BL6, mouse, blood, read-out: t1/2(app) (converted)
value-type: half-life (min)

> print(dat)
                                        smi  value.type  endpoint.result
1  Cc1cc(Nc2ccc(F)cc2)n(-c2nc(C(F)(F)F)cc(=O)[nH]2)n1   half-life              264
2  CCNc1cc(C)nn1-c1nc(-c2cccnc2)cc(=O)[nH]1   half-life              366

* * *

assay: Aqueous solubility of compound at pH 7.4; format: physicochemical; conditions: aqueous, read-out: solubility
value-type: solubility

> print(dat)
                                        smi  endpoint.result
1    Cc1cc(C)n(-c2nc(-c3ccccc3)cc(=O)n2C)n1           200 µM
2     Cc1ccc(Nc2cc(C)nn2-c2nc(C)cc(O)n2)cc1           < 5 µM
3    Cc1cc(C)n(-c2cc(-c3ccccc3)cc(=O)n2C)n1           185 µM
4  Cc1cc(C)n(-c2nc(-c3cccnc3)cc(=O)[nH]2)n1           200 µM
5       Cn1ccnc1-c1nc(-c2ccccc2)cc(=O)[nH]1           200 µM
6       COc1cc(-c2ccccc2)nc(-n2nc(C)cc2C)n1           200 µM
7  Cc1cc(-c2ccccc2)n(-c2nc(C(F)(F)F)cc(=O)[nH]2)n1           200 µM

* * *

test: Oral bioavailability in C57/BL6 mouse blood at 20 mg/kg measured upto 24 hrs by LC-MS/MS analysis; assay type: ADME, organism-based; details: C57/BL6, mouse, blood
The reader will find reported bioavailability values listed item by item below.
value-type: bioavailability (%)

> print(dat)
                                        smi       value.type  units.of.measure  endpoint.result
1  CCNc1cc(C)nn1-c1nc(-c2cccnc2)cc(=O)[nH]1  bioavailability                 %               44
2  Cc1cc(Nc2ccc(F)cc2)n(-c2nc(C(F)(F)F)cc(=O)[nH]2)n1  bioavailability                 %               33

* * *

experiment: Cmax in C57/BL6 mouse blood at 2 mg/kg, iv administered as bolus dose measured upto 24 hrs by LC-MS/MS analysis; format: ADME, organism-based; set-up: route intravenous, dose 2 mg/kg, time <=24; details: C57/BL6, mouse, blood
value-type: Cmax (µM)

> print(dat)
                                        smi  value.type  endpoint.result
1  Cc1cc(Nc2ccc(F)cc2)n(-c2nc(C(F)(F)F)cc(=O)[nH]2)n1        Cmax              2.4
2  CCNc1cc(C)nn1-c1nc(-c2cccnc2)cc(=O)[nH]1        Cmax             33.1

* * *

assay: Cmax in C57/BL6 mouse blood at 20 mg/kg, po measured upto 24 hrs by LC-MS/MS analysis; assay type: ADME, organism-based; set-up: route oral, dose 20 mg/kg, time <=24; conditions: C57/BL6, mouse, blood
value-type: Cmax (µM)

> print(dat)
                                        smi  value.type  endpoint.result
1  CCNc1cc(C)nn1-c1nc(-c2cccnc2)cc(=O)[nH]1        Cmax              104
2  Cc1cc(Nc2ccc(F)cc2)n(-c2nc(C(F)(F)F)cc(=O)[nH]2)n1        Cmax              2.9

* * *

test system: HepG2; assay: Antiproliferative activity against human HepG2 cells assessed as reduction in cell viability grown under galactose medium by MTT assay; assay type: functional, cell-based
pIC50: −log10 of the molar value.
value-type: pIC50

> print(dat)
                                    smi  value.type  endpoint.result
1  Cc1cc(C)n(-c2nc(O)cc(-c3ccccc3)n2)n1       pIC50             5.40

* * *

test: Protein binding in human plasma assessed as unbound fraction at 5 uM incubated for 1 hr at 37 degreeC and measured after 4 hrs by ultracentrifugation based LC-MS/MS analysis; format: ADME, cell-free; details: 5 h
value-type: Fu

> print(dat)
                                        smi  endpoint.result
1   Cc1cc(C)n(-c2nc(C(F)(F)F)cc(=O)[nH]2)n1            0.006
2  Cc1cc(NC2CCOCC2)n(-c2nc(C(F)(F)F)cc(=O)[nH]2)n1            0.014
3  Cc1nn(-c2nc(C(F)(F)F)cc(=O)[nH]2)c(C)c1N1CCOCC1             0.03
4  CCNc1cc(C)nn1-c1nc(-c2cccnc2)cc(=O)[nH]1            0.009
5  Cc1cc(Nc2ccc(F)cc2)n(-c2nc(C(F)(F)F)cc(=O)[nH]2)n1            0.013

* * *

The reader will find reported Stabilty values listed item by item below.
test: Metabolic stability in rat liver microsomes assessed as parent compound remaining after 30 mins; assay type: ADME, Microsome; settings: 0.5 h
value-type: Stabilty

> print(dat)
                                        smi  endpoint.result
1  Cc1cc(Nc2ccc(F)cc2)n(-c2nc(C(F)(F)F)cc(=O)[nH]2)n1              98%
2  Cc1cc(NC2CCOCC2)n(-c2nc(C(F)(F)F)cc(=O)[nH]2)n1            > 99%
3  CCNc1cc(C)nn1-c1nc(-c2cccnc2)cc(=O)[nH]1              95%
4  Cc1cc(C)n(-c2nc(-c3ccccc3)c(C)c(=O)[nH]2)n1              54%
5  Cc1cc(Nc2ccccn2)n(-c2nc(C(F)(F)F)cc(=O)[nH]2)n1              96%
6   Cc1cc(C)n(-c2nc(C(F)(F)F)cc(=O)[nH]2)n1              92%
